Reported solubility values for a set of molecules
method.notes: Crystalline solubility in methanol (saturated solution, thermogravimetric analysis of supernatant)
Type: physicochemical
experimental.parameters: organic solvent or mixture, thermodynamic from solid, no ammonia

CN1C(C(=O)Nc2ccccn2)=C(O)c2ccccc2S1(=O)=O : ~2100 µg/mL

Turning now to a further record.
Ask: Looking for the measured solubility of O=C(O)c1cc(/N=N/c2ccc(S(=O)(=O)Nc3ccccn3)cc2)ccc1O , can you help?
Reply: ~1000 µg/mL

Data provenance is patent US20220287976A1.
